experimental target: GluR5-2a (Rattus norvegicus, UniProt P22756, DEL402-416)
Construct: expressed in transfected cells; host or cells: HEK-293-T/17
Sequence (P22756 with tags, fused parts or gaps isoform P22756-2 limits assumed, stated change not applied): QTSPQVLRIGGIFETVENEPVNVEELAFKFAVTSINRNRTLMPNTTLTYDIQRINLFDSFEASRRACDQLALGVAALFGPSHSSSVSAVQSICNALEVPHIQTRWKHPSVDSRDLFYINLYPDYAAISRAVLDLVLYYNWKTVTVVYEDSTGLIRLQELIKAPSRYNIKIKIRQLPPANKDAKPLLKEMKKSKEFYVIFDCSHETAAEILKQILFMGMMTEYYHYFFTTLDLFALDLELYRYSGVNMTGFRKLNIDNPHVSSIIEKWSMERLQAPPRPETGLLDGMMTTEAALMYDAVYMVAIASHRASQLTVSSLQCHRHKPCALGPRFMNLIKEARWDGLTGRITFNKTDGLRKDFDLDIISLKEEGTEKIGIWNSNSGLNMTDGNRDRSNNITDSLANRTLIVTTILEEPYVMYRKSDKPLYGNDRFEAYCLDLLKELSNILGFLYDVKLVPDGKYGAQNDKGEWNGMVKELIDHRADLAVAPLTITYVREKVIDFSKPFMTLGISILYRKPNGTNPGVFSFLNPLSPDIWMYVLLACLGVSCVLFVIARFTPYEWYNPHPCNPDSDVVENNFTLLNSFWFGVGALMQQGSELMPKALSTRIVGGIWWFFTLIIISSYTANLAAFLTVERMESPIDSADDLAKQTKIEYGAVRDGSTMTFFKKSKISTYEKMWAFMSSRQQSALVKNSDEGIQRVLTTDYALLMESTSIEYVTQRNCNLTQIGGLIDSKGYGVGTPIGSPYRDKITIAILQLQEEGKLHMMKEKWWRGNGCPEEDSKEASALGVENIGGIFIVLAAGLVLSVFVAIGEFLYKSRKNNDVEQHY
assay procedure: Whole-cell patch clamp recordings, transfected HEK-293-T/17 cells, Example 2
Assay type: cell-based
study conditions: 10 mM glutamate in continued presence of analog; read-out: IC50 inhibition of glutamate-evoked currents, GluR5-2a
value type: pIC50
Please treat pIC50 as minus the base-10 logarithm of the molar concentration.

(Q) Let me know recorded pIC50 for N[C@@H](C[C@@]1(C(=O)O)CC2OCC(O)C(O)C2O1)C(=O)O (single isomer, unassigned) [2,4-epi-neoDH, 2,4-epi-neodysiherbaine] , thanks.
(A) 5.12

Where do these numbers come from? They come from patent US7973075B2.
